assay: Drug library screen, cell viability (CellTiter-Glo); format: cell-based, human; conditions: human; HCT116 ARID1A-WT; 10 μM for 5 days; relative to cells treated with solvent (DMSO); read-out: Cell viability, WT
parameter-measured: viability at 5 days, 10 μM (%)
Numbers only; they are read as %.

// solved cases for viability at 5 days, 10 μM follow
>  <compound>
O=C(CCCCCN1C(=O)c2cccc3cccc(c23)C1=O)NO [Scriptaid]

>  <viability at 5 days, 10 μM, %>
6.95

$$$$
>  <compound>
Cc1ccc2nc(NCCN)c3ncc(C)n3c2c1 [BMS-345541]

>  <viability at 5 days, 10 μM, %>
11.9

$$$$

Next compound, please.
// COc1cc2c(NC3CCN(C(C)C)CC3)nc(C3CCCCC3)nc2cc1OCCCN1CCCC1 [UNC0638] : viability at 5 days, 10 μM value = 2.6
